- Tested on: NCI-H292
- experiment_summary: Cellular uptake in human NCI-H292 cells assessed as compound retention at 3 to 20 uM incubated for 3 hrs followed by drug washout measured after 3 hrs by LC-MS/MS analysis relative to initial drug accumulation
- Type: ADME, cell-based
- run_parameters: nci-h292, 3 h
Listed molecules paired with reported Drug uptake
Returns: string containing the numeric result and its unit.

CC[C@H]1OC(=O)[C@H](C)[C@@H](O)[C@H](C)[C@@H](O)[C@](C)(O)C[C@@H](C)CN(C)[C@H](C)[C@@H](O)[C@]1(C)O [AZITHROMYCIN AGLYCONE]    0%

Continue with the molecule presented below.
Challenge: Reported Drug uptake, molecule CC[C@H]1OC(=O)[C@H](C)[C@@H](O[C@H]2C[C@@](C)(OC)[C@@H](OC(=O)CN(CC)CC)[C@H](C)O2)[C@H](C)[C@@H](O[C@@H]2O[C@H](C)C[C@H](N(C)C)[C@H]2O)[C@](C)(OC)C[C@@H](C)C(=O)N[C@H](C)[C@@H](O)[C@]1(C)O : ____
Response given: 48%
